All values here come from paper PMC7156458.

Biological target: Aβ42 (Homo sapiens)
Sequence (P05067 672-713): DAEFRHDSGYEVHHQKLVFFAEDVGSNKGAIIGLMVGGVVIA
Test: Th-T (thioflavin-T) assay of Aβ42 aggregation
Type: biochemical
Settings: Supplementary Fig. 47 source data; measurement M54 of time course
Th-T fluorescence, mean of three wells values by entry

Compound: CC(C)=CCC/C(C)=C/CC/C(C)=C/CC/C(C)=C/Cc1c(O)c(C)c(C)oc1=O [Compound 2]
Th-T fluorescence, mean of three wells: 2.875
//
Compound: C=C1CCC2C3(C)CC(C=C(C)C)OC3CCC2(C)C1Cc1c(OC)oc(C)c(C)c1=O (stereo not drawn) [Compound 23]
Th-T fluorescence, mean of three wells: 4.005
//
Compound: C=C1CC[C@H]2[C@]3(C)C[C@H](C=C(C)C)O[C@H]3CC[C@]2(C)[C@@H]1Cc1c(OC)oc(C)c(C)c1=O [Compound 24]
Th-T fluorescence, mean of three wells: 4.156
//
Compound: C=C1CCC2C(C)(CC(=O)C=C(C)C)C(O)CCC2(C)C1Cc1c(OC)oc(C)c(C)c1=O (stereo not drawn) [Compound 25]
Th-T fluorescence, mean of three wells: 3.756
//
Compound: C=C1CCC2C(C)(CCC=C(C)C)C(=O)CCC2(C)C1Cc1c(O)c(C)c(C)oc1=O (stereo not drawn) [Compound 8]
Th-T fluorescence, mean of three wells: 2.223
//
Compound: C=C1CCC2C(C)(CC(=O)C=C(C)C)C(O)CCC2(C)C1Cc1c(OC)oc(CO)c(C)c1=O (stereo not drawn) [Compound 19]
Th-T fluorescence, mean of three wells: 3.5732
//
Compound: C=C1CCC2C(C)(CC(=O)C=C(C)C)C(O)CCC2(C)C1Cc1c(O)c(C)c(C)oc1=O (stereo not drawn) [Compound 7]
Th-T fluorescence, mean of three wells: 3.589
//
Compound: C=C1CC[C@H]2[C@]3(C)C[C@@H](C=C(C)C)O[C@H]3CC[C@]2(C)[C@@H]1Cc1c(O)c(C)c(C)oc1=O [Compound 5, subglutinol A]
Th-T fluorescence, mean of three wells: 2.717
//
Compound: C=C1CC[C@H]2[C@]3(C)C[C@@H](C=C(C)C)O[C@H]3CC[C@]2(C)[C@@H]1Cc1c(OC)oc(CO)c(C)c1=O [Compound 17]
Th-T fluorescence, mean of three wells: 3.5687
//
Compound: C=C1CC[C@H]2[C@]3(C)C[C@H](C=C(C)C)O[C@H]3CC[C@]2(C)[C@@H]1Cc1c(OC)oc(CO)c(C)c1=O [Compound 18]
Th-T fluorescence, mean of three wells: 3.968
//
Compound: C=C1CC[C@@H]2[C@](C)(CC[C@H]3O[C@H](C=C(C)C)C[C@@]23C)[C@@H]1Cc1c(O)c(C)c(C)oc1=O [Compound 10, higginsianin A]
Th-T fluorescence, mean of three wells: 3.122
//
Compound: C=C1CC[C@H]2[C@]3(C)C[C@H](C=C(C)C)O[C@H]3CC[C@]2(C)[C@@H]1Cc1c(O)c(C)c(C)oc1=O [Compound 6, subglutinol B]
Th-T fluorescence, mean of three wells: 3.1191
